The entries below come with measured pIC50 values attached.
# Tested on: NCI-H1299
# Protocol details: Cytotoxicity against human NCI-H1299 cells overexpressing telomerase assessed as inhibition of cell growth incubated for 48 hrs by SRB assay
# Assay type: functional, cell-based
# Particulars: NCI-H1299, 48 h
Here pIC50 is given on a logarithmic scale as minus log10 of the concentration in mol/L.

- Smiles text: "N#Cc1c(O)nc(SCC(=O)Nc2sc3c(c2C#N)CCCC3)nc1-c1cccnc1"
  Value measured: 4.64

Let's switch to this molecule now.
(Q) Consider the molecule shown here: N#Cc1c(O)nc(SCC(=O)Nc2sc3c(c2C#N)CCC3)nc1-c1cccnc1 What is its recorded pIC50?
(A) 4.54

----------
# System under test: Telomerase reverse transcriptase (Homo sapiens) (UniProt O14746)
# Sequence (O14746 whole entry): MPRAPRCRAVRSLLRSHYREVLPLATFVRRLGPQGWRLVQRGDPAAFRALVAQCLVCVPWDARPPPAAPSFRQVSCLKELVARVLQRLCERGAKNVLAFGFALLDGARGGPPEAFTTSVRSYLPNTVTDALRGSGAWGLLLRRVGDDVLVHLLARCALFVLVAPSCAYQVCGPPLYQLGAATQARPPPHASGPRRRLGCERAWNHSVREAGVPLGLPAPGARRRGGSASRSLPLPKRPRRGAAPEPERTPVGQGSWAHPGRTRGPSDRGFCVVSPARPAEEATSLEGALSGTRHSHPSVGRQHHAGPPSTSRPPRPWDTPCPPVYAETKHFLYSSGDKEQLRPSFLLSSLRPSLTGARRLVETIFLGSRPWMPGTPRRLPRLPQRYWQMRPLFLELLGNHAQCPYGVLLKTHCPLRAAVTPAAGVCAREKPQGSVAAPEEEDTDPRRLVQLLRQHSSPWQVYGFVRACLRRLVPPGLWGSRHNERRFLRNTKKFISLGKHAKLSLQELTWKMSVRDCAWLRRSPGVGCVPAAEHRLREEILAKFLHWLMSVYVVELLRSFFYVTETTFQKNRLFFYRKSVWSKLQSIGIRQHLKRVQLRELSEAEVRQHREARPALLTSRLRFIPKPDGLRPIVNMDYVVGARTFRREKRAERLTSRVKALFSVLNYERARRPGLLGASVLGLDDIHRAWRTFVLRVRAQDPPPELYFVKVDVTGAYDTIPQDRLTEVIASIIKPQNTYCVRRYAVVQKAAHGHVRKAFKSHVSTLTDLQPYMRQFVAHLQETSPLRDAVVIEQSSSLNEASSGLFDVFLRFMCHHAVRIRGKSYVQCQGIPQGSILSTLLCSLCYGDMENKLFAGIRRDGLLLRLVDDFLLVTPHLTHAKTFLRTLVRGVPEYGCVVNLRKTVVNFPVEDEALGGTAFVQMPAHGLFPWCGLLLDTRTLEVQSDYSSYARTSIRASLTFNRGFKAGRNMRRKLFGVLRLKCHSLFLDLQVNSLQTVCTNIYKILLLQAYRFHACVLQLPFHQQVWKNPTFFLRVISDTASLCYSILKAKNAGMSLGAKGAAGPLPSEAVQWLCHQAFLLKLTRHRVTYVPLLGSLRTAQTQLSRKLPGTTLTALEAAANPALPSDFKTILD
# Protocol details: Inhibition of telomerase (unknown origin) by RT-qPCR analysis relative to control
# Set-up: concentration or dose not given beside the values
# Particulars: concentration not given here
The entries below come with measured inhibition values attached.
Just the number please, in %, no unit attached.

(Q) Please provide the recorded inhibition for COc1ccc(NC(=O)CSc2nc(O)c(C#N)c(-c3cccnc3)n2)cc1 , tested on Telomerase reverse transcriptase (Homo sapiens) (UniProt O14746).
(A) 46.1

(Q) Please provide the recorded inhibition for N#Cc1c(O)nc(SCC(=O)Nc2sc3c(c2C#N)CCC3)nc1-c1cccnc1 , tested on Telomerase reverse transcriptase (Homo sapiens) (UniProt O14746).
(A) 58.6

(Q) Please provide the recorded inhibition for N#Cc1c(O)nc(SCC(=O)Nc2cc(Cl)ccc2Cl)nc1-c1cccnc1 , tested on Telomerase reverse transcriptase (Homo sapiens) (UniProt O14746).
(A) 5.58
